Molecular target: CDK2/Cyclin A (Homo sapiens)
Assay: Inhibition of CDK2/Cyclin A Retinoblastoma Kinase Activity
Conditions: apparent Ki, CDK2/proteolyzed cyclin A, Rb fragment substrate, 25 μM ATP
pKi: −log10 of the molar value. Counter-ions that a name gives are not always drawn.
metric name: pKi

Reference set (8 entries):
INSERT INTO measurements (molecule, metric_name, measured) VALUES
  ('CN1CCC(Nc2nc(N)c(C(=O)c3c(F)cccc3F)s2)CC1 [Example A4]', 'pKi', 4.92),
  ('Nc1nc(NC2CCN(C(=O)c3ccc(F)c(Cl)c3)CC2)sc1C(=O)c1c(F)cccc1F [Example D8]', 'pKi', 7.00),
  ('C[C@@H]1CN(c2ccc(S(=O)(=O)N3CCC(Nc4nc(N)c(C(=O)c5c(F)cccc5F)s4)CC3)cc2)C[C@H](C)N1 [Example G29]', 'pKi', 9.14),
  ('Nc1nc(NC2CCN(S(=O)(=O)CCCN3CC=CCC3)CC2)sc1C(=O)c1c(F)cccc1F [Example K11]', 'pKi', 8.54),
  ('COC1CCN(CCCS(=O)(=O)N2CCC(Nc3nc(N)c(C(=O)c4c(F)cccc4F)s3)CC2)CC1 [Example K59]', 'pKi', 7.96),
  ('CNc1ccc(S(=O)(=O)N2CCC(Nc3nc(N)c(C(=O)c4c(F)cccc4F)s3)CC2)cn1 [Example G7]', 'pKi', 9.12),
  ('Nc1nc(NC2CCN(C(=S)Oc3ccc(F)cc3)CC2)sc1C(=O)c1c(F)cccc1F [Example C11]', 'pKi', 8.19),
  ('CN1CCC(c2ccc(S(=O)(=O)N3CCC(Nc4nc(N)c(C(=O)c5c(F)cccc5F)s4)CC3)cc2)C1 (stereo not shown) [Example F25, Dihydrochloride]', 'pKi', 8.82);

(I) CC[C@H](NCCS(=O)(=O)N1CCC(Nc2nc(N)c(C(=O)c3c(F)cccc3F)s2)CC1)c1ccccc1 [Example K42]
(II) Nc1nc(NC2CCN(S(=O)(=O)c3ccc(-c4cccnc4)nc3)CC2)sc1C(=O)c1c(F)cccc1F [Example I6, Hydrochloride]
Of the two listed items, which has the higher pKi? First: I Second: II // output: label of the selected item
II

(P) CN(C)CCN(C)c1ccc(C(=O)N2CCC(Nc3nc(N)c(C(=O)c4c(F)cccc4F)s3)CC2)cn1 [Example G32, Trifluoroacetic Acid Salt]
(Q) CN(C)c1ccc(NC(=O)N2CCC(Nc3nc(N)c(C(=O)c4c(F)cccc4F)s3)CC2)cc1 [Example B2]
Could you determine which record has the numerically smaller pKi? Candidates: P and Q // output: label of the selected item
P
(P: 7.22, Q: 7.55)

(1) Cn1cnc(-c2ccc(S(=O)(=O)N3CCC(Nc4nc(N)c(C(=O)c5c(F)cccc5F)s4)CC3)cn2)c1 [Example I5, Hydrochloride]
(2) Nc1nc(NC2CCN(S(=O)(=O)c3ccc(N4CCC(O)CC4)nc3)CC2)sc1C(=O)c1c(F)cccc1F [Example G9]
(3) Nc1nc(NC2CCN(S(=O)(=O)c3ccc(OCCN4CCCC4)nc3)CC2)sc1C(=O)c1c(F)cccc1F [Example H5, Trifluoroacetic Acid Salt]
Please list these in order of increasing pKi. Thank you! Show the ranking through the labels, in the order asked for.
1, 3, 2

###

Biological target: human CDK4 and genetically truncated (1-264) cyclin D3 (Homo sapiens, UniProt P11802)
Sequence (P11802 whole entry, the tested form may be a part): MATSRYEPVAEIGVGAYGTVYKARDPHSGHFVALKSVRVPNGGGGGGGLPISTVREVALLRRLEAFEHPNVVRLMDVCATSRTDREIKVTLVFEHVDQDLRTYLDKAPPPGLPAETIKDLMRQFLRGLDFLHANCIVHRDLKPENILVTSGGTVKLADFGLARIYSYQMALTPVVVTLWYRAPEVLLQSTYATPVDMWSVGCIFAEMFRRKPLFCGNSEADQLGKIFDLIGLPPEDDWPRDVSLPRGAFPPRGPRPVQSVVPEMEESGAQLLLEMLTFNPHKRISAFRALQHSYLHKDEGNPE
Sequence (P30281 1-264 partner): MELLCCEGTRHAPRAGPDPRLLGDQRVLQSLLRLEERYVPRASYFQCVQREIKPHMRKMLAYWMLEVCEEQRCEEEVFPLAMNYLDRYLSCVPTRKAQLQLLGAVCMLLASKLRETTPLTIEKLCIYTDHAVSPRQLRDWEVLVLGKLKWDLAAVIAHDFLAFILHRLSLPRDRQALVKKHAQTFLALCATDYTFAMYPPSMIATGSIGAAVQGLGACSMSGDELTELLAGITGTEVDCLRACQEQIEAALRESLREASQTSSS
Experiment: Inhibition of CDK4/Cyclin D Retinoblastoma Kinase Activity
Format: biochemical
Conditions: 0.03 μM compound; Table 3
Method: Cyclin-dependent kinase activity was measured by quantifying the enzyme-catalyzed, time-dependent incorporation of radioactive phosphate from [^32P]ATP or [^33P]ATP into a protein substrate. […] The phosphorylated substrate was then captured on a nitrocellulose or phosphocellulose membrane using a 96-well filtration manifold, and unincorporated radioactivity was removed by repeated washing with 0.85% phosphoric acid. Radioactivity was quantified by exposing the dried membranes to a phosphorimager. […]
metric name: CDK4 % Inhibition at 0.03 μM (%)

INSERT INTO assay_data (chemical_structure, tested_on, unit_label, measured) VALUES
  ('Nc1nc(NC2CCN(S(=O)(=O)c3c(Cl)nc4sccn34)CC2)sc1C(=O)c1c(F)cccc1F', 'human CDK4 and genetically truncated (1-264) cyclin D3 (Homo sapiens, UniProt P11802)', '%', 44),
  ('Cc1noc(C)c1S(=O)(=O)N1CCC(Nc2nc(N)c(C(=O)c3c(F)cccc3F)s2)CC1', 'human CDK4 and genetically truncated (1-264) cyclin D3 (Homo sapiens, UniProt P11802)', '%', 27);

(P) Nc1nc(NC2CCN(S(=O)(=O)c3ccc(-c4ccccc4)cc3)CC2)sc1C(=O)c1c(F)cccc1F
(Q) CCCCOc1ccc(C(C)(C)CC)cc1S(=O)(=O)N1CCC(Nc2nc(N)c(C(=O)c3c(F)cccc3F)s2)CC1
Could you determine which record has the numerically smaller CDK4 % Inhibition at 0.03 μM? Candidates: P and Q // output: label of the selected item
Q

###

Target: CDK2/Cyclin A (Homo sapiens)
Assay: Inhibition of CDK2/Cyclin A Retinoblastoma Kinase Activity
Format: biochemical
Settings: 0.03 μM compound; Table 4
metric name: CDK2 % Inhibition at 0.03 μM (%)

INSERT INTO results (compound, metric_name, unit_label, measured) VALUES
  ('Nc1nc(NC2CCN(C(=O)c3cccc([N+](=O)[O-])c3)CC2)sc1C(=O)c1c(F)cccc1F [Example Q69]', 'CDK2 % Inhibition at 0.03 μM', '%', 54),
  ('Nc1nc(NC2CCN(C(=O)c3ccc(-c4ccccc4)cc3)CC2)sc1C(=O)c1c(F)cccc1F [Example Q32]', 'CDK2 % Inhibition at 0.03 μM', '%', '−11');

(I) Nc1nc(NC2CCN(C(=O)C3CCCC3)CC2)sc1C(=O)c1c(F)cccc1F [Example Q57]
(II) C/C=C/C(=O)N1CCC(Nc2nc(N)c(C(=O)c3c(F)cccc3F)s2)CC1 [Example Q46]
Could you determine which record has the numerically smaller CDK2 % Inhibition at 0.03 μM? Candidates: I and II // output: label of the selected item
II
(II: −9%, I: 32%)

###

Property: HCT-116 % Inhibition at 0.25 μM; scope: individual molecules
Test system: HCT-116 cell line
Test: Inhibition of cell growth, tetrazolium salt (MTT) assay
Type: cell-based
Settings: 0.25 μM compound; HCT-116; Table 4
State the answer as a number, implicitly in %.

Reference set (3 entries):
INSERT INTO results (chemical_structure, measured) VALUES
  ('Nc1nc(NC2CCN(C(=O)c3ccccc3F)CC2)sc1C(=O)c1c(F)cccc1F', 43),
  ('Nc1nc(NC2CCN(C(=O)c3cccnc3)CC2)sc1C(=O)c1c(F)cccc1F', 27),
  ('Cc1cccc(C(=O)N2CCC(Nc3nc(N)c(C(=O)c4c(F)cccc4F)s3)CC2)c1', 85);

Now look at this entry.
Item under review: `CN(C)C(=O)N1CCC(Nc2nc(N)c(C(=O)c3c(F)cccc3F)s2)CC1` . Reported HCT-116 % Inhibition at 0.25 μM?
43

###

Target: CDK2/Cyclin A (Homo sapiens)
Assay: Inhibition of CDK2/Cyclin A Retinoblastoma Kinase Activity
Details: apparent Ki, CDK2/proteolyzed cyclin A, Rb fragment substrate, 25 μM ATP
pKi: −log10 of the molar value. Where a name gives a salt, the structure may show the parent alone.
metric name: pKi

Reference set (2 entries):
INSERT INTO results (molecule, measured) VALUES
  ('Nc1nc(NC2CCN(S(=O)(=O)c3ccc(N4CC[S+]([O-])CC4)nc3)CC2)sc1C(=O)c1c(F)cccc1F [Example G4]', 8.85),
  ('Nc1nc(NC2CCN(S(=O)(=O)c3ccc(N4CCOCC4)nc3)CC2)sc1C(=O)c1c(F)cccc1F [Example F20, Hydrochloride]', 8.85);

(I) C[C@@H](O)CN(C)c1ccc(S(=O)(=O)N2CCC(Nc3nc(N)c(C(=O)c4c(F)cccc4F)s3)CC2)cn1 [Example G17, Trifluoroacetic Acid Salt]
(II) CN(C)CCOc1ncc(S(=O)(=O)N2CCC(Nc3nc(N)c(C(=O)c4c(F)cccc4F)s3)CC2)cn1 [Example H24, Trifluoroacetic Acid Salt]
Could you determine which record has the numerically smaller pKi? Candidates: I and II // output: label of the selected item
II
(II: 8.74, I: 9.26)

###

Target: CDK2/Cyclin A (Homo sapiens)
Assay: Inhibition of CDK2/Cyclin A Retinoblastoma Kinase Activity
Assay type: biochemical
Settings: read-out: % inhibition of CDK2 (@ 0.05 μM), compound at 0.05 μM
metric name: inhibition at 0.05 µM (%)

INSERT INTO measurements (molecule, measured) VALUES
  ('CSCCNCCCS(=O)(=O)N1CCC(Nc2nc(N)c(C(=O)c3c(F)cccc3F)s2)CC1', 87),
  ('Nc1nc(NC2CCN(S(=O)(=O)CCCNCCCn3ccnc3)CC2)sc1C(=O)c1c(F)cccc1F', 84),
  ('Nc1nc(NC2CCN(S(=O)(=O)CCCNC3CCSCC3)CC2)sc1C(=O)c1c(F)cccc1F', 88),
  ('CC1(C)CCCN(CCCS(=O)(=O)N2CCC(Nc3nc(N)c(C(=O)c4c(F)cccc4F)s3)CC2)C1', 77),
  ('CN(CCCS(=O)(=O)N1CCC(Nc2nc(N)c(C(=O)c3c(F)cccc3F)s2)CC1)CC(O)CO (stereo not drawn)', 80),
  ('Nc1nc(NC2CCN(S(=O)(=O)CCCNCc3cccs3)CC2)sc1C(=O)c1c(F)cccc1F', 91),
  ('Nc1nc(NC2CCN(S(=O)(=O)CCCNCc3ncccc3O)CC2)sc1C(=O)c1c(F)cccc1F', 93),
  ('COC1CCN(CCCS(=O)(=O)N2CCC(Nc3nc(N)c(C(=O)c4c(F)cccc4F)s3)CC2)CC1', 81),
  ('NC(=O)C1CCN(CCCS(=O)(=O)N2CCC(Nc3nc(N)c(C(=O)c4c(F)cccc4F)s3)CC2)CC1', 83),
  ('CN(CCCS(=O)(=O)N1CCC(Nc2nc(N)c(C(=O)c3c(F)cccc3F)s2)CC1)Cc1ccco1', 88),
  ('Nc1ncccc1CNCCCS(=O)(=O)N1CCC(Nc2nc(N)c(C(=O)c3c(F)cccc3F)s2)CC1', 79),
  ('CN(C)CCN(C)CCCS(=O)(=O)N1CCC(Nc2nc(N)c(C(=O)c3c(F)cccc3F)s2)CC1', 70),
  ('Nc1nc(NC2CCN(S(=O)(=O)CCCN3C[C@@H]4C[C@H]3CO4)CC2)sc1C(=O)c1c(F)cccc1F', 90),
  ('Nc1nc(NC2CCN(S(=O)(=O)CCCN3CCC(O)CC3)CC2)sc1C(=O)c1c(F)cccc1F', 73),
  ('Nc1nc(NC2CCN(S(=O)(=O)CCCNCc3ccc[nH]c3=O)CC2)sc1C(=O)c1c(F)cccc1F', 76);

Data provenance is patent US20050101595A1.
